# measured_on: T1, human [1-305]-mouse chimeric EL (human; mouse, UniProt Q9WVG5 306-500)
# T1 sequence: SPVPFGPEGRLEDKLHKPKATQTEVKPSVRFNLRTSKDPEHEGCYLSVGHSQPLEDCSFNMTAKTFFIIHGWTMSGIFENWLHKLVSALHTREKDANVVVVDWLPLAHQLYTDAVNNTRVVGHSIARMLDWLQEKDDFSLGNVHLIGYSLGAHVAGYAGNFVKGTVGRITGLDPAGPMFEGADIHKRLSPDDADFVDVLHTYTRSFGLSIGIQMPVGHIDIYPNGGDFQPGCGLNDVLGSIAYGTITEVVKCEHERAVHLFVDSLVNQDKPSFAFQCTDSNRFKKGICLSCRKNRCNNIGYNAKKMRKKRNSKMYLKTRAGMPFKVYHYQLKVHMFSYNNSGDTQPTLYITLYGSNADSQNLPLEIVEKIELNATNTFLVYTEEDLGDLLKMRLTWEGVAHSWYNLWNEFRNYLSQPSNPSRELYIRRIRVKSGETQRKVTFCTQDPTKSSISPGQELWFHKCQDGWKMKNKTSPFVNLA
# measurement_notes: cell-based or functional assay
Give Neutralizing activity IC50 for every item shown.
One number for each entry, in nM.

Quick batch: Neutralizing activity IC50 for everything below.
1. h55A1-S4 (antibody, V domains shown, humanized) VH: QVQLVQSGSELKKPGASVKVSCKASGYTFTNYAMNWVRQAPGQGLEWMGWINTYSGVGTYAGDFKGRFVFSLDTSVSTAYLQISSLKAEDTAVYYCARRGFYGRRFFDVWGKGTTVTVSS VL: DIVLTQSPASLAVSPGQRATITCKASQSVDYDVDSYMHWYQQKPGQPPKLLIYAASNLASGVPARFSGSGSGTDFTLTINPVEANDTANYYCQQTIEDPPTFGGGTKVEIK
2. h55A1-S3 (antibody, V domains shown, humanized) VH: QVQLVQSGSELKKPGASVKVSCKASGYTFTNYGLNWVRQAPGQGLEWMGWINTYSGVPTYAGDFKGRFVFSLDTSVSTAYLQISSLKAEDTAVYYCARRGYYGRRFFDVWGKGTTVTVSS VL: DIVLTQSPASLAVSPGQRATITCKASQSVDYDVDSYMHWYQQKPGQPPKLLIYAASNLASGVPARFSGSGSGTDFTLTINPVEANDTANYYCQNTIEDPPTFGGGTKVEIK
3. h55A1-S7 (antibody, V domains shown, humanized) VH: QVQLVQSGSELKKPGASVKVSCKASGYTFTNYALNWVRQAPGQGLEWMGWINTYSGVGTYAGEFKGRFVFSLDTSVSTAYLQISSLKAEDTAVYYCARRGFYGRRFFDVWGKGTTVTVSS VL: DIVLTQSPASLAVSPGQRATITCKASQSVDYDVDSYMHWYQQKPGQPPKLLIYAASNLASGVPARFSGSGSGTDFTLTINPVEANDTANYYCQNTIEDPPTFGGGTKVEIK
4. h55A1-S5 (antibody, V domains shown, humanized) VH: QVQLVQSGSELKKPGASVKVSCKASGYTFTNYAMNWVRQAPGQGLEWMGWINTYSGVGTYAGDFKGRFVFSLDTSVSTAYLQISSLKAEDTAVYYCARRGFYGRRFFDVWGKGTTVTVSS VL: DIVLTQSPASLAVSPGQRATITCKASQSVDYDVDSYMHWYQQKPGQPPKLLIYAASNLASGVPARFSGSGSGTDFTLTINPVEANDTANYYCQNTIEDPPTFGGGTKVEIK
5. 13B3 (antibody, mouse IgG2a, V domains shown, mouse IgG2a from hybridoma; also called 13B3 (mouse mAb)) VH: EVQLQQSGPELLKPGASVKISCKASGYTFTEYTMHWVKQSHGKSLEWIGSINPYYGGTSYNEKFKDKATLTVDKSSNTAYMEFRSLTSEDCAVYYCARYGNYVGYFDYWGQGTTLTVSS VL: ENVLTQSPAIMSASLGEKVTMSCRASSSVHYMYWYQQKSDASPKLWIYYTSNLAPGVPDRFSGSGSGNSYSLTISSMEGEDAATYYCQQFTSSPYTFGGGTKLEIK

[reply]
[1.1, 1.2, 1, 1.3, 4.1]

Attribution: patent US20200071424A1
